The reported numbers originate from PubChem BioAssay AID2546.

Assay: VP16 counterscreen qHTS for inhibitors of ROR gamma transcriptional activity;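 note: Gal4-VP16 expression switched on by copper sulfate through the metallothionein promoter; nearly all actives have a fitted effect of over 50% in size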
Conditions: Drosophila S2 Gal4-VP16 UAS-luciferase, luminescence, 20 h; series mostly up to 53.6 µM
Out of some 310,000 compounds screened, about 11,000 (3.5%) were called active. Another 8% or so got no clear call; they are omitted. Calls come from the whole dose curve; as a rule, active = well fitted inhibition curve with a large enough effect; inconclusive = small, poorly fitted or top-dose-only effect, or effect the other way; inactive = flat fitted curve, though single readings scatter. This is one part of a sample in which actives are shown more often than they occur.
Labels: active, inactive

Compound | Label
N#Cc1cccc(NC(=O)COC(=O)c2ccccc2C(=O)c2ccc(Cl)c([N+](=O)[O-])c2)c1 | active
CCOc1cc(-c2noc(CCCC(=O)NC3CCCCC3)n2)ccc1OC | inactive
COc1ccc(NC(=O)CCCN2C(=O)C(c3ccccc3)Oc3cccnc32)cc1 (stereo unspecified) | inactive
COc1cc(/C=C(\C#N)c2nc3ccccc3[nH]2)ccc1O | inactive
COc1cc(/C=N/Nc2nc3ccccc3s2)ccc1O | inactive
COc1cc(/C=C(\C#N)c2nc3c(s2)CC(C)CC3)ccc1O (stereo unspecified) | active
Cc1ccnc(SCC(N)=O)n1 | inactive
O=C(COC(=O)/C(=C/c1cccs1)c1cccs1)NCc1ccccc1Cl | active
O=C(Cc1c(Cl)cccc1Cl)NC1CC1 | inactive
O=C(COC(=O)c1cccs1)Nc1ccccc1Cl | inactive
Cc1cc(NC(=O)CCN2CCN(Cc3ccccc3)CC2)ccc1Br | inactive
